assay: soluble on expression in E. coli; label from the status in PepcDB or PDB records
Reported Metric: soluble on expression in E. coli

Seq Text: GMGKEIEIERKTLVSKETFKRLISQLHIGEGDFKLQRNHYFETDDFQLKKQSSALRIREKEAIFTFTLKQPHPAGLLETNQTLSKQEAKLALESAHFPSGEVMDALRDLSIPISQLKHIGTLSTSRAEISYEQGILCLDHSSYLGIEDYEIEFEGTSEEHATVTFQEILKTFSISQVPTENKIQRFFSKKEKN
Result: soluble

Seq Text: MAHHHHHHMSKKNKSFYENDGSGRDTFVNYAGAYWMNPLPAGTFFKSRGHLTQSSVPTENGTSLVMDDSTPYPGRTLFGKSRYGTTILAAGQVATLDAPADSQSGHSAGMGSTSRSTANPLAGTDADAQEFDGEATALEHISFDVSNPERRLRQPGHSTTGLEGTGGGSTYNGVKEPWTAPNAVDSTLLRLAPAYESTCHYHLRTGLFYTEDAAPPHEMTLPDKGVTWGRSRYY
Result: soluble

----------
assay: soluble on expression in E. coli; label from the status in PepcDB or PDB records
Reported Metric: soluble on expression in E. coli

Seq Text: AEVEHYEPLQVHVQLEKVYLDGDVSIEHKHEKVFSMDDFWAAYAGWTLVEQKKGYVLFRKQMDDISPLSKVNGYIGVSDNGVISTFHGRPEPASEPIQSFFQIDLERLESHMQKNLLKGIPFRTKAEFEDVIEHMKTYSG
Reported Metric: soluble on expression in E. coli
Result: soluble
--
Seq Text: MNQTLETGTTTVGITLKDAVIMATERRVTMENFIMHKNGKKLFQIDTYTGMTIAGLVGDAQVLVRYMKAELELYRLQRRVNMPIEAVATLLSNMLNQVKYMPYMVQLLVGGIDTAPHVFSIDAAGGSVEDIYASTGSGSPFVYGVLESQYSEKMTVDEGVDLVIRAISAAKQRDSASGGMIDVAVITRKDGYVQLPTDQIESRIRKLGLILHHHHHH
Reported Metric: soluble on expression in E. coli
Result: soluble

----------
assay: soluble on expression in E. coli; label from the status in PepcDB or PDB records
Reported Metric: soluble on expression in E. coli

Seq Text: MGSDKIHHHHHHMEEEMLKCKRLFVSDMDGTFYLGNTLLPGSLDFAMAVHRLGARLVFLTNNSSRTPEEYIRKLEKMGVDRKLFQVYTSGEATISFLKRDFAKKKAFLLSTPSVREMFEKGGVMLDDFDPEVLVLAFDTSITYEKIRRAALLIRQGIPYVASHPDINCPTEEGPIPDVGSLISLFETSTGRRPDHIIGKPDPAILKMVMEDFDCSQEETVVIGDRLYTDIECGLKAEVDTFLVLSGETTRDMIPDRHSYKVVENVGSLAKKIRDHDTV
Result: not soluble
--
Seq Text: MNKVKILAIVGSLRKGSYNRQLALAAKEIVKDTADFTLLDYQDVPLMNEDIEYPAPDAVKRVREEVKAADGIWFFTPEYNHFFPGVLKNLIDWLSRPVSENEPQVLAGKPAAISGISLGMSGTAIAQDHLVTLISFLDMKVMNVPRVTVPNAWQYVDDQGKLIMESIYPHLEKQAKAFVNFIQAKCL
Result: not soluble
--
Seq Text: MMKGSKSYTEYSSSFSTDEFGYDQNRSNSYNFNGPCINTDPEMKRKKRVASYNLFATEEKLKSTLKNSFKWIKNKFSGDDNSIRYNV
Result: not soluble
